Molecular target: T1, RHPN1, Q8TCX5
T1 sequence (Q8TCX5 508-602, limits assumed, looked up): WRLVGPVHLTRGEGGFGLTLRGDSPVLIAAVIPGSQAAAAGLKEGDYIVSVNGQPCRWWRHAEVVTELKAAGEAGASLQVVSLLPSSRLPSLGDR
Assay: holdup assay
Parameters: key: below the threshold = too weak to quantify, mostly under pKd 3.1 to 4
Settings: plain residues with an end cap or a label only (N-terminal biotin on a linker: ado-ado)
VALUE_TYPE: pKd
Answer as a number with no unit attached.

                        binder  value_type  recorded_measurement
0  HYPASPDSWV [CTNND2, Q9UQB3]         pKd                  4.42

Continue with the next binder.
q: Which pKd is reported for this binder? NNMAFETTHF [SLC5A12, Q1EHB4]
a: 4.08
